Observed Ki values for Chymotrypsinogen B (Homo sapiens) are listed in what follows.
assayMetric: Ki (µM)

A = COc1ccc(-n2nc(C(N)=O)c3ncn(-c4ccc(-c5ccccc5CN5CCCC5)cc4)c(=O)c32)cc1
B = COc1ccc(-n2nc(C#N)c3ncn(-c4ccc(-c5ccccc5CN5CCCC5)cc4)c(=O)c32)cc1
## Task Rank A against B by their Ki values and give the higher one. Record your answer as the label of the chosen record.
## Result A

====

Each item that follows carries a reported pKi.
Target: UniProtKB P00749
Assay: Binding affinity to urokinase
pKi: −log10 of the molar value.

# compoundString, testedSystem, experimentalResult
measured = [
    ("COc1ccc(-n2nc(C(N)=O)c3ncn(-c4ccc(-c5ccccc5CN5CCCC5)cc4)c(=O)c32)cc1", "UniProtKB P00749", "< 4.89"),
]

Read the next record carefully.
## Task Please give measured pKi of the following entry: `COc1ccc(-n2nc(C#N)c3ncn(-c4ccc(-c5ccccc5CN5CCCC5)cc4)c(=O)c32)cc1`
## Result < 4.89

====

Assay: Half life in dog at 0.5 mg/kg, iv and 0.2 mg/kg, po
Format: ADME, organism-based, Canis lupus familiaris
Conditions: in vivo
assayMetric: half-life (h)

# compoundString, experimentalResult
data = [
    ("COc1ccc(-n2nc(C(N)=O)c3ncn(-c4ccc(-c5ccccc5CN5CCCC5)cc4)c(=O)c32)cc1.O=C(O)C(F)(F)F", 5.4),
]

I = COc1ccc(-n2nc(C(N)=O)c3ncn(-c4ccc(-c5ccccc5CN5CCCC5)cc4F)c(=O)c32)cc1.O=C(O)C(F)(F)F
II = COc1ccc(-n2nc(C#N)c3ncn(-c4ccc(-c5ccccc5CN5CCCC5)cc4)c(=O)c32)cc1.O=C(O)C(F)(F)F
## Task Rank I against II by their half-life values and give the higher one. Record your answer as the label of the chosen record.
## Result II

====

Observed Ki values for Coagulation factor X (Homo sapiens) are listed in what follows.
assayMetric: Ki (nM)

Below are worked cases with known answers.
# compoundString, Ki (nM)
data = [
    ("COc1ccc(-n2nc(C#N)c3ncn(-c4ccc(-c5ccccc5CN(C)C)cc4)c(=O)c32)cc1", 2.1),
    ("COc1ccc(-n2nc(Cn3cnnn3)c3nc(C)n(-c4ccc(-c5ccccc5CN5CCCC5)cc4)c(=O)c32)cc1", 1.4),
    ("COc1ccc(-n2nc(C(N)=O)c3ncn(-c4ccc(-c5ccccc5CN5CC[C@@H](O)C5)cc4)c(=O)c32)cc1", 1.5),
]

P = COc1ccc(-n2nc(C#N)c3ncn(-c4ccc(-c5ccccc5CN5CCCC5)cc4)c(=O)c32)cc1
Q = COc1ccc(-n2nc(C(=O)O)c3ncn(-c4ccc(-c5ccccc5S(N)(=O)=O)cc4)c(=O)c32)cc1
R = COC(=O)c1nn(-c2ccc(OC)cc2)c2c(=O)n(-c3ccc(-c4ccccc4S(N)(=O)=O)cc3)cnc12
S = COc1ccc(-n2nc(C(N)=O)c3ncn(-c4ccc(-c5ccccc5CN5CCCC5)cc4F)c(=O)c32)cc1
## Task Ascending sort, Ki. Please list each label once, in the requested order.
## Result S, P, R, Q

====

Target: Coagulation factor X (Oryctolagus cuniculus, UniProt O19045)
Sequence (O19045 41-180 limits assumed): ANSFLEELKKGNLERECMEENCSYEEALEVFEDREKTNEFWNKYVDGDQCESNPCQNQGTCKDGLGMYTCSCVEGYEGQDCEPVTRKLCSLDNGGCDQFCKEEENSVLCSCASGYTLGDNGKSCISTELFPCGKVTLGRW
Sequence (O19045 233-490 limits assumed): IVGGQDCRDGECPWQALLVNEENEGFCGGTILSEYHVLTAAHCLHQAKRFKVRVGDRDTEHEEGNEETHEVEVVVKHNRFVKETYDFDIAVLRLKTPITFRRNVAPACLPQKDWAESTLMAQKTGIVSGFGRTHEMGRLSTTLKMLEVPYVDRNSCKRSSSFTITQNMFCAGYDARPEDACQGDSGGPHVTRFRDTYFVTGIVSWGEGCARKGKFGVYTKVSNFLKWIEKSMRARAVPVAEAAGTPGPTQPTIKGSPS
assayMetric: pKi
Conceptually, pKi converts a concentration in mol/L into minus its log10.

## Task Find pKi for `COc1ccc(-n2nc(C(N)=O)c3ncn(-c4ccc(-c5ccccc5CN5CCCC5)cc4)c(=O)c32)cc1` on Coagulation factor X (Oryctolagus cuniculus, UniProt O19045) and write it down.
## Result 9.00

====

Each item that follows carries a reported pKi.
Molecular target: UniProt:P00740
Sequence (P00740 47-191 limits assumed): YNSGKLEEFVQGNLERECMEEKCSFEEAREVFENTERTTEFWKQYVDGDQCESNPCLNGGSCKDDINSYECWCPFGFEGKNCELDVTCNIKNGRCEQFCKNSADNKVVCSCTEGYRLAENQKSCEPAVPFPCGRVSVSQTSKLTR
Sequence (P00740 227-461 limits assumed): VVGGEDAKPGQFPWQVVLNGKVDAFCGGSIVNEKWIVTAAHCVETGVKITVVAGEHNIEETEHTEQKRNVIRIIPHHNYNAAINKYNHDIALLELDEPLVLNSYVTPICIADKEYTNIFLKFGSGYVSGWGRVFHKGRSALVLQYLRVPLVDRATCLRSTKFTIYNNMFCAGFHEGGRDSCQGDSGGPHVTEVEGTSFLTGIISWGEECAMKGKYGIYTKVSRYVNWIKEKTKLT
Test: Binding affinity to f9a
pKi: −log10 of the molar value.

# compoundString, assayMetric, experimentalResult
measured = [
    ("COc1ccc(-n2nc(C(N)=O)c3ncn(-c4ccc(-c5ccccc5CN5CCCC5)cc4)c(=O)c32)cc1", "pKi", "< 4.39"),
]

Read the next record carefully.
## Task Please give measured pKi of the following entry: `COc1ccc(-n2nc(C(N)=O)c3ncn(-c4ccc(-c5ccccc5CN5CCCC5)cc4F)c(=O)c32)cc1`
## Result < 4.82

====

Target: Prothrombin (Homo sapiens)
Assay: Binding affinity to thrombin
assayMetric: Ki (µM)

# compoundString, Ki (µM)
measured = [
    ("COc1ccc(-n2nc(C(N)=O)c3ncn(-c4ccc(-c5ccccc5CN5CCCC5)cc4)c(=O)c32)cc1", 1.6),
]

P = COc1ccc(-n2nc(C(N)=O)c3ncn(-c4ccc(-c5ccccc5CN5CCCC5)cc4F)c(=O)c32)cc1
Q = COc1ccc(-n2nc(C#N)c3ncn(-c4ccc(-c5ccccc5CN5CCCC5)cc4)c(=O)c32)cc1
## Task Kindly compare P with Q and tell me which has the lower Ki figure. Record your answer as the label of the chosen record.
## Result Q
(Q: 1.1 µM, P: 1.8 µM)

====

Observed Ki values for Plasminogen (Homo sapiens, UniProt P00747) are listed in what follows.

# compoundString, assayMetric, experimentalResult
records = [
    ("COc1ccc(-n2nc(C(N)=O)c3ncn(-c4ccc(-c5ccccc5CN5CCCC5)cc4)c(=O)c32)cc1", "Ki", "> 15 µM"),
]

Read the next record carefully.
## Task Please give measured Ki of the following entry: `COc1ccc(-n2nc(C#N)c3ncn(-c4ccc(-c5ccccc5CN5CCCC5)cc4)c(=O)c32)cc1`
## Result > 15 µM

====

Experiment: Clearance in dog at 0.5 mg/kg, iv and 0.2 mg/kg, po
Assay type: ADME, organism-based, Canis lupus familiaris
Details: in vivo
assayMetric: clearance (mL/min/kg)

# compoundString, clearance [mL/min/kg]
data = [
    ("COc1ccc(-n2nc(C(N)=O)c3ncn(-c4ccc(-c5ccccc5CN5CCCC5)cc4F)c(=O)c32)cc1.O=C(O)C(F)(F)F", 12.7),
]

A = COc1ccc(-n2nc(C(N)=O)c3ncn(-c4ccc(-c5ccccc5CN5CCCC5)cc4)c(=O)c32)cc1.O=C(O)C(F)(F)F
B = COc1ccc(-n2nc(C#N)c3ncn(-c4ccc(-c5ccccc5CN5CCCC5)cc4)c(=O)c32)cc1.O=C(O)C(F)(F)F
## Task Rank A against B by their clearance values and give the higher one. Record your answer as the label of the chosen record.
## Result B
(B: 113 mL/min/kg, A: 9.17 mL/min/kg)

====

Experiment: Volume of distribution in dog at 0.5 mg/kg, iv and 0.2 mg/kg, po
Format: ADME, organism-based, Canis lupus familiaris
Details: in vivo, read-out: Vdss
assayMetric: Vd (L/kg)

# compoundString, experimentalResult
records = [
    ("COc1ccc(-n2nc(C(N)=O)c3ncn(-c4ccc(-c5ccccc5CN5CCCC5)cc4)c(=O)c32)cc1.O=C(O)C(F)(F)F", 3.9),
]

A = COc1ccc(-n2nc(C(N)=O)c3ncn(-c4ccc(-c5ccccc5CN5CCCC5)cc4F)c(=O)c32)cc1.O=C(O)C(F)(F)F
B = COc1ccc(-n2nc(C#N)c3ncn(-c4ccc(-c5ccccc5CN5CCCC5)cc4)c(=O)c32)cc1.O=C(O)C(F)(F)F
## Task Rank A against B by their Vd values and give the higher one. Record your answer as the label of the chosen record.
## Result B

====

Each item that follows carries a reported 2aPTT.
Experiment: Activity in human plasma by aPTT assay
Format: functional
Quick reminder: number only, in µM, skip the unit.

Below are worked cases with known answers.
# compoundString, assayMetric, experimentalResult
measured = [
    ("COc1ccc(-n2nc(Cn3ncnn3)c3nc(C)n(-c4ccc(-c5ccccc5CN5CCCC5)cc4)c(=O)c32)cc1", "2aPTT", 20.1),
    ("CCOC(=O)c1nn(-c2ccc(OC)cc2)c2c(=O)n(-c3ccc(-c4ccccc4CN4CCCC4)cc3)cnc12", "2aPTT", 1.8),
    ("COC(=O)c1nn(-c2ccc(OC)cc2)c2c(=O)n(-c3ccc(-c4ccccc4S(N)(=O)=O)cc3)cnc12", "2aPTT", 7.1),
    ("COc1ccc(-n2nc(C(N)=O)c3ncn(-c4ccc(-c5ccccc5S(N)(=O)=O)cc4F)c(=O)c32)cc1", "2aPTT", 9.8),
    ("COc1ccc(-n2nc(C#N)c3ncn(-c4ccc(-c5ccccc5S(N)(=O)=O)cc4)c(=O)c32)cc1", "2aPTT", 5.8),
    ("COc1ccc(-n2nc(C(N)=O)c3ncn(-c4ccc(-c5ccccc5CN5CCCC5)cc4F)c(=O)c32)cc1", "2aPTT", 3.9),
    ("COc1ccc(-n2nc(C(N)=O)c3ncn(-c4ccc(-c5ccccc5CN5CCCC5)cc4)c(=O)c32)cc1", "2aPTT", 4),
]

## Task Please give measured 2aPTT of the following entry: `COc1ccc(-n2nc(C#N)c3[nH]c(=O)n(-c4ccc(-c5ccccc5S(C)(=O)=O)cc4F)c(=O)c32)cc1`
## Result 197
